target: Protein cereblon/Serine/threonine-protein kinase ATR (Homo sapiens) (UniProt Q13535+Q96SW2); experiment: PROTAC activity at ATR/CRBN in patient derived human MIA PaCa-2 cells assessed as reduction in protein level at 2 uM measured after 24 hrs by immunoblot analysis relative to untreated control; type: cell-based
Sequence (Q13535 whole entry, looked up): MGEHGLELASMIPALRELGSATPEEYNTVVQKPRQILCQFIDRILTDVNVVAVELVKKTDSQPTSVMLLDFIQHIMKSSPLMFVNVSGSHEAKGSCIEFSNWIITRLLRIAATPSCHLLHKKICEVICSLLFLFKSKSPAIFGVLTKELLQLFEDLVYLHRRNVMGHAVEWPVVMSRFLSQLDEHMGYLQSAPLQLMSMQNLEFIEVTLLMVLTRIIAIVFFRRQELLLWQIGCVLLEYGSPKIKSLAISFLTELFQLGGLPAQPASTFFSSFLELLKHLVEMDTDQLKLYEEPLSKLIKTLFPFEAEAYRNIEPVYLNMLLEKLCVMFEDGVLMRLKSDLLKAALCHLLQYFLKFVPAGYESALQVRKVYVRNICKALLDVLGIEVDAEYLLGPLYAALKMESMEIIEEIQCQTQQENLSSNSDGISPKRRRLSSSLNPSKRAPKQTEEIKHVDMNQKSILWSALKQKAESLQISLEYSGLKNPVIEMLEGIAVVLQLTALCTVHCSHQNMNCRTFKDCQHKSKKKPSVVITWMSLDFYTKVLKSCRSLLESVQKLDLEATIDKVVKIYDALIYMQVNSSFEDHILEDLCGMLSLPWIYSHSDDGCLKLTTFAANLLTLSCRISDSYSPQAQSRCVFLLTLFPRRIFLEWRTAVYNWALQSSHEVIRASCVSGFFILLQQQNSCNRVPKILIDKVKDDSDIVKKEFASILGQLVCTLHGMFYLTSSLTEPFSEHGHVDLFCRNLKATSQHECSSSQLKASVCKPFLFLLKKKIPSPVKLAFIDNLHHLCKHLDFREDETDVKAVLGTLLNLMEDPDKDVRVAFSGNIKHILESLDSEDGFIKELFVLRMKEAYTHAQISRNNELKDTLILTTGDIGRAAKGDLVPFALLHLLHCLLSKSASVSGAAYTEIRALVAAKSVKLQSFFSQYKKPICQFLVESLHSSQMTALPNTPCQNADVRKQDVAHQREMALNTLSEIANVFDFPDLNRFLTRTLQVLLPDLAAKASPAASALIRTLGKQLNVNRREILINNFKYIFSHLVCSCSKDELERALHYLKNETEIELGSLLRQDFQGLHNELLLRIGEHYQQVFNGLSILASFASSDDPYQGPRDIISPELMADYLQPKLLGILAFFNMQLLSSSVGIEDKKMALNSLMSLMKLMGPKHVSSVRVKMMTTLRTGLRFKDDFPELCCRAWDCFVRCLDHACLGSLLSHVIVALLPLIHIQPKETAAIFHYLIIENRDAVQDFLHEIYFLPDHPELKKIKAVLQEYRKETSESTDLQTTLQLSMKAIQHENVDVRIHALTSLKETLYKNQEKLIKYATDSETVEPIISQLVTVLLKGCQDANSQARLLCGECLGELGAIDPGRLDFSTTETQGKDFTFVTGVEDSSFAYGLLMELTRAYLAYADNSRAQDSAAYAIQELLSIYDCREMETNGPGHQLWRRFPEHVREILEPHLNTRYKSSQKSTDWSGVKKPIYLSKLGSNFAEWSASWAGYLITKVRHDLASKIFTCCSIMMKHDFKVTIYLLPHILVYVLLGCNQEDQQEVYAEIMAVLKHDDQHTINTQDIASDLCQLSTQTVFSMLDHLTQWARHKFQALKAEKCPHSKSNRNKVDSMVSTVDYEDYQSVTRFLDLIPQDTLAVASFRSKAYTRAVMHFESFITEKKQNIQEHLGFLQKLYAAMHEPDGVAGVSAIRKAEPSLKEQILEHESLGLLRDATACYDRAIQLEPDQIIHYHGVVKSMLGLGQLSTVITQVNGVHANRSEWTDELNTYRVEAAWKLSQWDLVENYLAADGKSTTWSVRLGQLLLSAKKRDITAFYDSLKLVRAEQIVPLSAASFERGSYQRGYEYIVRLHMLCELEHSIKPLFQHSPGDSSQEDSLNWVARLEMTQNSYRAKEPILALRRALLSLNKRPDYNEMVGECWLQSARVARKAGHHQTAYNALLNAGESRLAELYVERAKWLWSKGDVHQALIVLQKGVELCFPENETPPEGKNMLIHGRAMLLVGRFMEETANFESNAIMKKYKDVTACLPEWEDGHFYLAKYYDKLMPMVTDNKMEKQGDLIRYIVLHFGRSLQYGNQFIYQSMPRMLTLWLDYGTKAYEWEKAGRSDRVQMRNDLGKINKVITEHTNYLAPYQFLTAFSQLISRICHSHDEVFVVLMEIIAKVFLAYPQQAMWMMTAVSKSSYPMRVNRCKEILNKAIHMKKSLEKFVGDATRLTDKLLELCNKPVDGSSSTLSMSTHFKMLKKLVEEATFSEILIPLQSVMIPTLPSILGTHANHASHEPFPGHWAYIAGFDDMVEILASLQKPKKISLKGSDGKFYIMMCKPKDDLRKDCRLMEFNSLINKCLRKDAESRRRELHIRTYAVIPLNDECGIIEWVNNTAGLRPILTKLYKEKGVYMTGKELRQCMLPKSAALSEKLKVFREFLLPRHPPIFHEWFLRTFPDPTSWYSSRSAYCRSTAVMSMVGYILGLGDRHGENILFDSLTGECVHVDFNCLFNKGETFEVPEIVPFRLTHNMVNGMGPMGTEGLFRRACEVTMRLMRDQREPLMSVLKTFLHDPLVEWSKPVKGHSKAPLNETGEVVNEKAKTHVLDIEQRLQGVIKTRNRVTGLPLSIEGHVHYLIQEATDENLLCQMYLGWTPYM
Sequence (Q96SW2 whole entry, looked up): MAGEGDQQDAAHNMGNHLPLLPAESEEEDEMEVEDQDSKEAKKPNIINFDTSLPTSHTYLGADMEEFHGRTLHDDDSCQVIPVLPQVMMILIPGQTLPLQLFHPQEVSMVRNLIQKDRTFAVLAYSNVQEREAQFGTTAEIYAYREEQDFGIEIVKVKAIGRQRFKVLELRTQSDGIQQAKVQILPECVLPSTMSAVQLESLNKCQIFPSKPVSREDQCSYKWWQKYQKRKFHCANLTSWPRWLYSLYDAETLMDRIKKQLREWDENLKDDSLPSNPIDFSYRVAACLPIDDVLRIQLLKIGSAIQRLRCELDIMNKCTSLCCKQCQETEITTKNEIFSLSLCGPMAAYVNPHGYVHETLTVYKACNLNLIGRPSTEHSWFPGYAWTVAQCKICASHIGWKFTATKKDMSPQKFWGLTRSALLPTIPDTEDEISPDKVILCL
Active and inactive are the calls of the source. The rule behind the calls is not given here.
EXPERIMENTAL READOUT: Activity

Example entries and their recorded answers appear below.
COMPOUND	Activity
Nc1ncc(-c2ccc(S(=O)(=O)NCCCCC(=O)N3CCN(c4ccc5c(c4)C(=O)N(C4CCC(=O)NC4=O)C5=O)CC3)cc2)nc1C(=O)Nc1ccccc1 (stereo not drawn)	inactive
Nc1ncc(-c2ccc(S(=O)(=O)NCCOCCOCCOCCC(=O)N3CCN(c4ccc5c(c4)C(=O)N(C4CCC(=O)NC4=O)C5=O)CC3)cc2)nc1C(=O)Nc1ccccc1 (stereo not drawn)	inactive
CNCc1ccc(-c2nnc(-c3nc(-c4ccc(S(=O)(=O)NCCCCCC(=O)NCC#Cc5cccc6c5CN(C5CCC(=O)NC5=O)C6=O)cc4)cnc3N)o2)cc1 (stereo not drawn)	> 20%
CN1C(=O)CCC(N2Cc3c(C#CCCCNC(=O)CCCCCNS(=O)(=O)c4ccc(-c5cnc(N)c(C(=O)Nc6ccccc6)n5)cc4)cccc3C2=O)C1=O (stereo not drawn)	inactive
Nc1ncc(-c2ccc(S(=O)(=O)NCCCCCC(=O)NCC#Cc3cccc4c3CN(C3CCC(=O)NC3=O)C4=O)cc2)nc1-c1nnc(-c2ccccc2)o1 (stereo not drawn)	40%
Nc1ncc(-c2ccc(S(=O)(=O)NCCCCCC(=O)NCCCC#Cc3cccc4c3CN(C3CCC(=O)NC3=O)C4=O)cc2)nc1C(=O)Nc1ccccc1 (stereo not drawn)	40%

Now look at this one.
# query: Activity of entry Nc1ncc(-c2ccc(S(=O)(=O)NCCOCCOCCC(=O)N3CCN(c4ccc5c(c4)C(=O)N(C4CCC(=O)NC4=O)C5=O)CC3)cc2)nc1C(=O)Nc1ccccc1 (stereo not drawn)
inactive

* * *

assay: Chemical stability of the compound in at pH 7.4 measured at 12 hrs by HPLC based non-enzymatic stability assay; type: physicochemical; details: buffer, read-out: Stability
I'd be grateful if you could share measured remaining at 12 h for these entries.
Give bare numbers, in %.

COMPOUND	UNIT TAG	VALUE OBSERVED
Nc1ncc(-c2ccc(S(=O)(=O)NCCCCCCC(=O)NCCOc3ccc(C4CCC(=O)NC4=O)cc3)cc2)nc1C(=O)Nc1ccccc1 (configuration not stated)	%	103

# return remaining at 12 h for each item in the list
1. Cc1ncsc1-c1ccc(CNC(=O)[C@@H]2C[C@@H](O)CN2C(=O)[C@@H](NC(=O)CCOCCOCCOCCNS(=O)(=O)c2ccc(-c3cnc(N)c(C(=O)Nc4ccccc4)n3)cc2)C(C)(C)C)cc1
2. Nc1ncc(-c2ccc(S(=O)(=O)NCCCCCCCC(=O)N3CCN(c4ccc5c(c4)C(=O)N(C4CCC(=O)NC4=O)C5=O)CC3)cc2)nc1C(=O)Nc1ccccc1 (configuration not stated)
3. Cc1ncsc1-c1ccc(CNC(=O)[C@@H]2C[C@@H](O)CN2C(=O)[C@@H](NC(=O)CCOCCOCCNS(=O)(=O)c2ccc(-c3cnc(N)c(C(=O)Nc4ccccc4)n3)cc2)C(C)(C)C)cc1
4. CNCc1ccc(-c2nnc(-c3nc(-c4ccc(S(=O)(=O)NCCCCCC(=O)NCC#Cc5cccc6c5CN(C5CCC(=O)NC5=O)C6=O)cc4)cnc3N)o2)cc1 (configuration not stated)

1. 100
2. 105
3. 100
4. 101

Value source: ChEMBL document CHEMBL5543092
